# test: NCI Yeast Anticancer Drug Screen. Data for the cln2 rad14 strain (AID 165);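 also: 0% = growth equal to vehicle treated cultures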
# assay.setup: S. cerevisiae cln2 rad14 strain, at 50.0 µM, stronger effect = higher value
About 79,000 compounds went through this panel and 15% of them were active in at least one assay; those are over-represented in the sample as a whole. The source made the active and inactive calls. Rule as the data show it: active = growth inhibition above about 70%; inactive = the rest.
measured.metric: growth inhibition

Please review the entries below; each comes with its answer.
CC1=C(C(=O)Nc2cccc(Cl)c2)C(c2ccccc2O)C(C(=O)Nc2cccc(Cl)c2)=C(C)N1
59.2% (inactive)
COc1ccc2c(C)cc(N/N=C/c3ccc(OC)c4ccccc34)nc2c1
35.5% (inactive)
Cc1ccc(S(=O)(=O)N(c2ccccc2-c2ccccc2)C(C)C(=O)O)cc1 (stereo unspecified)
91.5% (active)

[Q] If you can, please state the reported growth inhibition value of `Cc1c2cc(Cl)ccc2cc2c1ccc1ccccc12` .
[A] 70.8% (active)

[Q] If you can, please state the reported growth inhibition value of `Cc1ccc(NC(=O)c2cc3ccccc3c(N=Nc3cc(S(=O)(=O)O)ccc3O)c2O)c(C)c1` .
[A] 59.9% (inactive)

Measured values drawn from PubChem BioAssay (NCI) for this set.
